These entries and their values trace back to paper PMC12586182.

Measured Percentage inhibition of kinase enzyme activity, listed per entry.
# tested.system: p38δ (Homo sapiens, UniProt O15264)
# Construct: purchased Carna Biosciences
# Sequence (O15264 whole entry): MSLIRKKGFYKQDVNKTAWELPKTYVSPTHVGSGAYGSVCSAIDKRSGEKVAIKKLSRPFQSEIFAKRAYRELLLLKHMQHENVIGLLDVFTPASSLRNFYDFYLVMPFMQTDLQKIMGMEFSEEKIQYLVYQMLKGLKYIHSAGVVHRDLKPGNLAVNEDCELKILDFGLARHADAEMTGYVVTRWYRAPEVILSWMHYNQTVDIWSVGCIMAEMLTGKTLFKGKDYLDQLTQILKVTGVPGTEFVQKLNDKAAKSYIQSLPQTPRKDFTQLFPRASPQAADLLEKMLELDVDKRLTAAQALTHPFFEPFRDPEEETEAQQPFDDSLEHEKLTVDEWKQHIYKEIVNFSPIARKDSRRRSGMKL
# run.description: Kinase panel profiling at 1 µmol/L (mobility shift assay, Carna)
# Format: biochemical
# assay.setup: 1 µmol/L of BTK inhibitor
# value in %; strip the unit string

// solved cases for Percentage inhibition of kinase enzyme activity follow
>  <compound>
O=C(c1ccc(Oc2ccccc2)cc1Cl)c1c[nH]c2ncnc(N[C@@H]3CC[C@@H](CO)OC3)c12 [nemtabrutinib]

>  <result.units>
%

>  <value.observed>
-5.79

$$$$
>  <compound>
COc1ccc(F)cc1C(=O)NCc1ccc(-c2nn([C@@H](C)C(F)(F)F)c(N)c2C(N)=O)cc1 [pirtobrutinib]

>  <result.units>
%

>  <value.observed>
-1.92

$$$$
>  <compound>
C=CC(=O)N1CCC[C@@H](n2nc(-c3ccc(Oc4ccccc4)cc3)c3c(N)ncnc32)C1 [ibrutinib]

>  <result.units>
%

>  <value.observed>
-3.68

$$$$

Now take the following compound into account.
# Percentage inhibition of kinase enzyme activity of CC#CC(=O)N1CCC[C@H]1c1nc(-c2ccc(C(=O)Nc3ccccn3)cc2)c2c(N)nccn12 [acalabrutinib] = -1.74

----------
# tested.system: PLK3 (Homo sapiens, UniProt Q9H4B4)
# Construct: purchased Carna Biosciences
# Sequence (Q9H4B4 whole entry): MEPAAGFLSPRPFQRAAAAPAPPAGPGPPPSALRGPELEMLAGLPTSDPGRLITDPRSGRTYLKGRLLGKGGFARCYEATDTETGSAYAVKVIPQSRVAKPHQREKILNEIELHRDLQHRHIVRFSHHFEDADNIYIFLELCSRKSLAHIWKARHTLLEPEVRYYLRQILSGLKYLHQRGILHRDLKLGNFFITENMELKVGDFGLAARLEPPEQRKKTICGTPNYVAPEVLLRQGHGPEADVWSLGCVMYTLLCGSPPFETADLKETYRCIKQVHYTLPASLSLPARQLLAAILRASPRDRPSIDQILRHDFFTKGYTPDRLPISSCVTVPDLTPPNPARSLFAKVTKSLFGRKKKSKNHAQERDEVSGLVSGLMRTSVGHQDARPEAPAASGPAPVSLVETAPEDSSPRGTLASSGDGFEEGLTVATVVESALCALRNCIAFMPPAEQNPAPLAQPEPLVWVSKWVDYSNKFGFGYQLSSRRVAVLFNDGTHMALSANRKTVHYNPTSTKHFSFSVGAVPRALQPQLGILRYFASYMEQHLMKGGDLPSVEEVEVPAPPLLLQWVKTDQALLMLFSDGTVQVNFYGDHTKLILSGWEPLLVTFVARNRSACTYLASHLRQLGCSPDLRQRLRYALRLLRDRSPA
# run.description: Kinase panel profiling at 1 µmol/L (mobility shift assay, Carna)
# Format: biochemical
# assay.setup: 1 µmol/L of BTK inhibitor
reported.endpoint: Percentage inhibition of kinase enzyme activity (%)
Answer with a number only, understood to be in %.

>  <compound.structure>
COc1ccc(F)cc1C(=O)NCc1ccc(-c2nn([C@@H](C)C(F)(F)F)c(N)c2C(N)=O)cc1

>  <value.observed>
-1.13

$$$$
>  <compound.structure>
O=C(c1ccc(Oc2ccccc2)cc1Cl)c1c[nH]c2ncnc(N[C@@H]3CC[C@@H](CO)OC3)c12

>  <value.observed>
5.13

$$$$
>  <compound.structure>
CC#CC(=O)N1CCC[C@H]1c1nc(-c2ccc(C(=O)Nc3ccccn3)cc2)c2c(N)nccn12

>  <value.observed>
1.76

$$$$

Summary for this compound, "C=CC(=O)N1CCC[C@@H](n2nc(-c3ccc(Oc4ccccc4)cc3)c3c(N)ncnc32)C1" : Percentage inhibition of kinase enzyme activity is 1.53

----------
# tested.system: SRPK1 (Homo sapiens)
# Construct: purchased Carna Biosciences
# Sequence (Q96SB4 whole entry): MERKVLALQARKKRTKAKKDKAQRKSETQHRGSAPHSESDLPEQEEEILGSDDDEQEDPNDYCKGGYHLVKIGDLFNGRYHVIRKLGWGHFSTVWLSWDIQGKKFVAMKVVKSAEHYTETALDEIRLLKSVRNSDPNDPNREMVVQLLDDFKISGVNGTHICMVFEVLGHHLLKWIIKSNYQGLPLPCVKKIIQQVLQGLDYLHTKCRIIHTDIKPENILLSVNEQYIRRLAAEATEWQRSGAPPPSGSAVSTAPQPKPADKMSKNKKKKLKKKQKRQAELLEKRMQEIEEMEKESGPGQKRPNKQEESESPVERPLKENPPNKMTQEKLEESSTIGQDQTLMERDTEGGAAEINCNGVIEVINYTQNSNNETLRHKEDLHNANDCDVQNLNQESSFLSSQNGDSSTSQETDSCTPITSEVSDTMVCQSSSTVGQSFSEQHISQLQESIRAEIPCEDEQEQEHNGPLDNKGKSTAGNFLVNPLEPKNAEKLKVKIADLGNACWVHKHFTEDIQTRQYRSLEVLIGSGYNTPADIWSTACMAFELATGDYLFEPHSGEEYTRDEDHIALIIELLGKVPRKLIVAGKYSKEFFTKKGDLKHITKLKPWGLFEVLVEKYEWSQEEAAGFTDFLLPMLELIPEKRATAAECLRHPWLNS
# run.description: Kinase panel profiling at 1 µmol/L (mobility shift assay, Carna)
# Format: biochemical
# assay.setup: 1 µmol/L of BTK inhibitor
reported.endpoint: Percentage inhibition of kinase enzyme activity

Some entries whose results are on file:
>  <compound.structure>
C=CC(=O)N1CCC[C@@H](n2nc(-c3ccc(Oc4ccccc4)cc3)c3c(N)ncnc32)C1

>  <tested.system>
SRPK1 (Homo sapiens)

>  <value.observed>
1.20%

$$$$
>  <compound.structure>
CC#CC(=O)N1CCC[C@H]1c1nc(-c2ccc(C(=O)Nc3ccccn3)cc2)c2c(N)nccn12

>  <tested.system>
SRPK1 (Homo sapiens)

>  <value.observed>
-4.73%

$$$$

Given the molecule "O=C(c1ccc(Oc2ccccc2)cc1Cl)c1c[nH]c2ncnc(N[C@@H]3CC[C@@H](CO)OC3)c12" and test system SRPK1 (Homo sapiens), the measured Percentage inhibition of kinase enzyme activity is 6.73%

// assay SRPK1 (Homo sapiens), entry "COc1ccc(F)cc1C(=O)NCc1ccc(-c2nn([C@@H](C)C(F)(F)F)c(N)c2C(N)=O)cc1" , Percentage inhibition of kinase enzyme activity value = 8.97%
